Every entry's value here was drawn from patent US9662323B2.

- testedTarget: Human M3 receptor (Homo sapiens, UniProt P20309)
- Construct: purchased Perkin Elmer
- Sequence (P20309 whole entry): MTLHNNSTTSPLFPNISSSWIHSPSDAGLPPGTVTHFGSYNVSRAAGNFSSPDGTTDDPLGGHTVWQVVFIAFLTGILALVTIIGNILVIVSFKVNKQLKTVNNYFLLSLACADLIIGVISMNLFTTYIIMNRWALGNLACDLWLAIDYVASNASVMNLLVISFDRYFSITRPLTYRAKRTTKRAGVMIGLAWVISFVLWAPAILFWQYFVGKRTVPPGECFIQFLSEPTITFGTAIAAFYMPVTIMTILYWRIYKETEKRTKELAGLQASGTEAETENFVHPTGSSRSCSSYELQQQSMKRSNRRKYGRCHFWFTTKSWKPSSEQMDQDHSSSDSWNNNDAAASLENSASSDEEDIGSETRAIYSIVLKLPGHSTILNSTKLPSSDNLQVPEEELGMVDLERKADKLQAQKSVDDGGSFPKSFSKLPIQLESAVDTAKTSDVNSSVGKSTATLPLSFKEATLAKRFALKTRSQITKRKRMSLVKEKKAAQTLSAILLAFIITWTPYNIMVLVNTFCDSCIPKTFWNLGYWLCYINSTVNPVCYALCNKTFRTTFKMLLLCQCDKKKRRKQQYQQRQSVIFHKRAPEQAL
- protocolSummary: M3 Receptor Radioligand Binding Assay
- conditionsUsed: human M3 receptor membranes, [3H]-N-methyl scopolamine; read-out: M3 binding affinity (Ki class)
pKi: −log10 of the molar value.
Reported pKi values for the following compounds.

Worked cases, pKi given:
O=C(c1ccc(CCNC[C@H](O)c2ccc(O)c3[nH]c(=O)ccc23)cc1)N1CCC(C(=O)O[C@H]2CN3CCC2CC3)(c2ccccc2)CC1
< 8.00
O=C(Cc1ccc(CC(=O)N(CCCNC[C@H](O)c2ccc(O)c3[nH]c(=O)ccc23)Cc2cccc(C(F)(F)F)c2)cc1)N1CCC(C(=O)O[C@H]2CN3CCC2CC3)(c2ccccc2)CC1
> 9.00

Moving on to another compound below.
Which value of pKi has been reported for O=C(Cc1ccc(CC(=O)N(CCCNC[C@H](O)c2ccc(O)c3[nH]c(=O)ccc23)Cc2cccc(OCc3ccccc3)c2)cc1)N1CCC(C(=O)O[C@H]2CN3CCC2CC3)(c2ccccc2)CC1 in the records?
> 9.00

---

- testedTarget: Human M3 receptor (Homo sapiens, UniProt P20309)
- Construct: purchased Perkin Elmer
- protocolSummary: M3 Receptor Radioligand Binding Assay
- conditionsUsed: human M3 receptor membranes, [3H]-N-methyl scopolamine; read-out: M3 binding affinity (Ki class)
measurementType: Ki

O=C(Cc1ccc(CC(=O)N(CCCNC[C@H](O)c2ccc(O)c3[nH]c(=O)ccc23)Cc2ccccc2OCc2ccccc2)cc1)N1CCC(C(=O)O[C@H]2CN3CCC2CC3)(c2ccccc2)CC1 [Compound 43]
< 1 nM
Cc1cc(C(=O)N2CCC(C(=O)O[C@H]3CN4CCC3CC4)(c3ccccc3)CC2)ccc1OCCCCCNC[C@H](O)c1ccc(O)c2[nH]c(=O)ccc12 [Compound 10]
1 to 10 nM
Cc1ccccc1CN(CCCNC[C@H](O)c1ccc(O)c2[nH]c(=O)ccc12)C(=O)Cc1ccc(CC(=O)N2CCC(C(=O)O[C@H]3CN4CCC3CC4)(c3ccccc3)CC2)cc1 [Compound 34]
< 1 nM
O=C(c1ccc(OCCCCCCNC[C@H](O)c2ccc(O)c3[nH]c(=O)ccc23)cc1)N1CCC(C(=O)O[C@H]2CN3CCC2CC3)(c2ccc(Br)cc2)CC1 [Compound 50]
> 10 nM

Which Ki value belongs to O=C(Cc1ccc(OCc2ccc(CNC[C@H](O)c3ccc(O)c4[nH]c(=O)ccc34)cc2)cc1)N1CCC(C(=O)O[C@H]2CN3CCC2CC3)(c2ccccc2)CC1 [Compound 55] ?
< 1 nM
